Ref: patent US12624044B2

Parameter Dmax: see the listing below.
# System: SMARCA2 (Homo sapiens, UniProt P51531)
# Sequence (P51531 whole entry): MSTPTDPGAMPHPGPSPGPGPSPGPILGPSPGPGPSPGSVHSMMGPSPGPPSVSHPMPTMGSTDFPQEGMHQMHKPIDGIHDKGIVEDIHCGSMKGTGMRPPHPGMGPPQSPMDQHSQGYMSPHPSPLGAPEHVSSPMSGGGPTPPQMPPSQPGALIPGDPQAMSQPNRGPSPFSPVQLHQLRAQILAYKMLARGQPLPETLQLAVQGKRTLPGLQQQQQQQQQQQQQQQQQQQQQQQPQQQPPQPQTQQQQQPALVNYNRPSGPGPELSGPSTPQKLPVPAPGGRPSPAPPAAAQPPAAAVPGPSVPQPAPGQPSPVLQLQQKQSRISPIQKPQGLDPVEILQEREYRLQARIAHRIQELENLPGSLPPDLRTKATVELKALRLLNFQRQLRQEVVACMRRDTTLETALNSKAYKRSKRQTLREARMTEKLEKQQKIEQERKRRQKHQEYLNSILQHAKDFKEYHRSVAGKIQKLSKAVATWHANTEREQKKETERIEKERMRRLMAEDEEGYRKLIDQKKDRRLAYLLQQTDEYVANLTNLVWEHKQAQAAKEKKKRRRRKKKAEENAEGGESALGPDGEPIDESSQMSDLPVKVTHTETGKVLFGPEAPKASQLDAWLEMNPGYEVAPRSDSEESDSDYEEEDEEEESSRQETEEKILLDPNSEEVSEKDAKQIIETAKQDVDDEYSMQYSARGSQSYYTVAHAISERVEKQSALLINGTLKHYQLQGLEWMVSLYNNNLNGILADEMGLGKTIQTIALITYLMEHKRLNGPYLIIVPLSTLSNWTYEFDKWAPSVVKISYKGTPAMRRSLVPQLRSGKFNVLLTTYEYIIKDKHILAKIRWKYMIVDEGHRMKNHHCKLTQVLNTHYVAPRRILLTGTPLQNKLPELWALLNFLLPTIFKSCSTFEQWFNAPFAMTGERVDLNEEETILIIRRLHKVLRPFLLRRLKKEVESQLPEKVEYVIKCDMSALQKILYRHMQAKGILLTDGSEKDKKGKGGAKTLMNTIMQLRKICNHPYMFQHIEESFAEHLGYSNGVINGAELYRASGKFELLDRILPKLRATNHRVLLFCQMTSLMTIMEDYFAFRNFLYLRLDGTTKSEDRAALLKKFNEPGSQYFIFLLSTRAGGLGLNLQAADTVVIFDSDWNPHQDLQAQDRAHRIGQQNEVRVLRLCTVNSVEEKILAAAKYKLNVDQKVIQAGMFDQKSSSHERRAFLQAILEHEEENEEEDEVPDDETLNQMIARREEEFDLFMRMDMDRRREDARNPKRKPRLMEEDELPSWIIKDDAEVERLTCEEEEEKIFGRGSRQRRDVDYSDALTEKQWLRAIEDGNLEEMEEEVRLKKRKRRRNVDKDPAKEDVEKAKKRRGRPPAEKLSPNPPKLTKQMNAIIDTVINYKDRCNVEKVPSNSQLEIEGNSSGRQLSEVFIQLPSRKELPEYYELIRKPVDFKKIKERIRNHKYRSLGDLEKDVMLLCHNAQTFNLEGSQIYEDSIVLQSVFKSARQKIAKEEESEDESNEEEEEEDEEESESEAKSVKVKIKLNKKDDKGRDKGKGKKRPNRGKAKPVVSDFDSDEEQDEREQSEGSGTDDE
# Assay Notes: MSD SMARCA2 degradation in A549 cell line
# Format: cell-based
# Run Conditions: A549, A549 cells, 24 h
# Method: Cells were seeded into 96-well plates (A549 cells: 2×10^4 cells/well/100 ul media) abd incubated overnight. The next day, 200 nl compound were added into the intermediate plate with Echo (Labcyte 550) from source plate containing a 3-fold serial dilution from top concentration of 1 mM. […] The MSD plate was washed three times with 150 ul/well of TBST and 150 ul/well of 2×MSD reading buffer diluted from 4× (MSD, R92TC-2) with water was added. Lastly, the MSD instrument was read. […]

Solved entries (count: 4):
>>> experimental_result("Cc1ncsc1-c1ccc(CNC(=O)[C@@H]2C[C@@H](O)CN2C(=O)[C@@H](NC(=O)[C@@H]2CC3CCC2C[C@@H]3c2cnc(N3C4CCC3CN(c3cc(-c5ccccc5O)nnc3N)C4)nc2)C(C)(C)C)cc1 (some centres unmarked) [I-410]")
"> 90%"
>>> experimental_result("Cc1ncsc1-c1ccc(CNC(=O)[C@@H]2C[C@@H](O)CN2C(=O)[C@@H](NC(=O)[C@H]2CC3(C2)C[C@H](c2ccc(CN4CCC(Cn5cc(-c6cc(-c7ccccc7O)nnc6N)cn5)CC4)cc2)C3)C(C)(C)C)cc1 (some centres unmarked) [I-433]")
"> 90%"
>>> experimental_result("Cc1ncsc1-c1ccc(CNC(=O)[C@@H]2C[C@@H](O)CN2C(=O)[C@@H](NC(=O)[C@H]2CC[C@H](N3CCC(n4cc(-c5cc(-c6ccccc6O)nnc5N)cn4)CC3)CC2)C(C)(C)C)cc1 [I-361]")
"50 to 70%"
>>> experimental_result("CN(Cc1ccc(C#Cc2cc(NC(=O)Nc3cc(F)ncc3CO)ccn2)cc1)C1CCN(Cc2cccc3c2n(C)c(=O)n3C2CCC(=O)NC2=O)CC1 (centres unmarked) [I-310]")
"< 50%"

Query: So what's the measured Dmax for this one? Cc1ncsc1-c1ccc(CNC(=O)[C@@H]2C[C@@H](N)CN2C(=O)[C@@H](NC(=O)CCCNCc2ccc(C#Cc3cc(NC(=O)Nc4cc(F)ncc4CO)ccn3)cc2)C(C)(C)C)cc1 [I-492]
Response: < 50%
